- Protocol Description: Solubility in recrystallization solvents (Panel 1)
- Type: physicochemical
- Details: organic solvent or mixture, thermodynamic from solid; 1-propanol; saturation temp. 25 °C
Property Measured: solubility

Query string: What measured solubility goes with CO[P@](=O)(c1cc(C)cc(/C=C/C#N)c1)c1c(C(N)=O)[nH]c2ccc(Cl)cc12 [compound of Formula I] ?
Result string: ~2670 µg/mL

====

- Protocol Description: Solubility in recrystallization solvents (Panel 1)
- Type: physicochemical
- Details: organic solvent or mixture, thermodynamic from solid; methanol; saturation temp. 25 °C
Property Measured: solubility (µg/mL)
Numeric answer only, unit µg/mL assumed.

Query string: What measured solubility goes with CO[P@](=O)(c1cc(C)cc(/C=C/C#N)c1)c1c(C(N)=O)[nH]c2ccc(Cl)cc12 ?
Result string: 10000

Entry source: patent US8470870B2
